Data credit: the supplement of paper PMC7125110

B1: glmS ribozyme (parent)
chain: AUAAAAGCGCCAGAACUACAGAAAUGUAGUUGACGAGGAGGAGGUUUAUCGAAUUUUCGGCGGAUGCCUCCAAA

variants of: B1; assay: KM; higher = weaker cofactor use; RNA array; settings: with glucosamine-6-phosphate
Hi there, I'd appreciate the recorded KM for every entry that follows.
Write it as a number; the unit µM goes unstated.

Give the measured KM of G29C A39C .
4360

Give the measured KM of A14C G40U .
2800

Give the measured KM of U30G G66C .
1620

Give the measured KM of C16A A52G .
730

Give the measured KM of A39G A48C .
2140

Give the measured KM of A12G A14G .
4770

Give the measured KM of A15U G32A .
4440

Give the measured KM of U46C U55G .
1790

Give the measured KM of G32A G60C .
183

Give the measured KM of G40U G41A .
1380

Give the measured KM of A14G C16U G43A C67G .
2840

Give the measured KM of U30C U46G .
5040

Give the measured KM of G41A U46G C70U .
620

Give the measured KM of A52U U54C .
2570

Give the measured KM of A53C C71G .
1290

Give the measured KM of A6U C16U C68U .
625

Give the measured KM of A14U A48U .
9240

Give the measured KM of A14G U56G .
1560

Give the measured KM of U31C A42G .
2260

Give the measured KM of U31A A53U .
3760

Give the measured KM of U31A A39C .
2120

Give the measured KM of C16U U46A .
2760

Give the measured KM of A42U A53G .
2160

Give the measured KM of U30A A52U .
4380

Give the measured KM of G41A C70U .
1100

Give the measured KM of U54C C67A .
1580

Give the measured KM of C34G C70G .
234

Give the measured KM of G13U A14C .
8960

Give the measured KM of A12G U45G .
5260

Give the measured KM of U47C C68G .
573

Give the measured KM of `A33C` .
2800

Give the measured KM of A15U A53G .
1990

Give the measured KM of U45A A53G .
692

Give the measured KM of U45A U56C .
3070

Give the measured KM of `A39C` .
2180

Give the measured KM of U45A A64G .
600

Give the measured KM of G40C U47G .
1190

Give the measured KM of C11U C16A .
1760

Give the measured KM of C19A G40C .
832

Give the measured KM of G40C A53C .
2240

Give the measured KM of G37A A52G .
3420

Give the measured KM of A15U G40A .
912

Give the measured KM of U54G G59A .
858

Give the measured KM of A15G G66C .
833

Give the measured KM of A14C U47G .
2500

Give the measured KM of A52G C67U .
2370
